- Test system: rabbit aortic strip
- ASSAY: Inhibition of PDBu-induced contraction of rabbit aortic strip
- Type: cell-based
- TEST SETTINGS: Oryctolagus cuniculus; PDBu as agonist
READOUT TYPE: IC50

SMILES STRING	TEST TARGET	READOUT TYPE	ENDPOINT VALUE
NC1=NC(=O)/C(=C2\CCNC(=O)c3[nH]c(Br)cc32)N1	rabbit aortic strip	IC50	500 to 800 nM
